- measurement.protocol: Inhibitory activity against MCP-1 induced Calcium flux in […]
- Type: functional, cell-based
- reported.conditions: Homo sapiens, THP-1
parameter: IC50 (µM)
Express the result in µM but write the number alone.

Here is how some compounds turned out for IC50.
compound: CCC(c1ccc(F)c(C(F)(F)F)c1)n1c(C(=O)OC)cnc1S (configuration not stated)
IC50 / µM: 1

compound: CC[C@H](c1ccc(Cl)c(Cl)c1)n1c(C(N)=O)cnc1S
IC50 / µM: 10

compound: CCC(c1ccc(Cl)c(Cl)c1)n1c(S)nc(C(N)=O)c1C#N (configuration not stated)
IC50 / µM: 0.126

# input Give the reported value of IC50 for this record: CCC(c1ccc(F)c(F)c1)n1c(S)nc(C(=O)OC)c1C(=O)OC (configuration not stated)
# output 0.01

# input Give the reported value of IC50 for this record: CCC(c1ccc(Cl)c(Cl)c1)n1c(S)nc(C(N)=O)c1C(N)=O (configuration not stated)
# output 0.0631

# input Give the reported value of IC50 for this record: CCC(c1ccc(F)c(C(F)(F)F)c1)n1c(S)nc(C(=O)OC)c1C(=O)OC (configuration not stated)
# output 0.1

# input Give the reported value of IC50 for this record: COCC(c1ccc(Cl)c(Cl)c1)n1c(C(=O)OC)cnc1S (configuration not stated)
# output 0.316

# input Give the reported value of IC50 for this record: CCC(c1ccc(Cl)c(Cl)c1)n1c(S)nc(C)c1C(=O)OC (configuration not stated)
# output 0.251

# input Give the reported value of IC50 for this record: CCC(c1ccc(Cl)c(Cl)c1)n1c(C#N)cnc1S (configuration not stated)
# output 0.631

###

- measurement.protocol: Inhibitory activity against MCP-1 induced Calcium flux in […]
- Format: functional, cell-based
- reported.conditions: Homo sapiens, THP-1
pIC50: −log10 of the molar value.
Property: pIC50; scope: individual compounds

Here is how some compounds turned out for pIC50.
compound: CCC(c1ccc(OC)c(OC)c1)n1c(C(=O)OC)cnc1S (stereo unspecified)
pIC50: < 5.00

compound: CCC(c1ccc(F)c(F)c1)n1c(C(=O)NCC(C)C)cnc1S (stereo unspecified)
pIC50: < 5.00

compound: COC(=O)c1cnc(S)n1C(c1ccc(Cl)c(Cl)c1)C1CCCCC1 (stereo unspecified)
pIC50: 5.00

# input Give the reported value of pIC50 for this record: CCC(c1ccc(Cl)c(Cl)c1)n1c(S)nc(C)c1C(=O)NC (stereo unspecified)
# output < 5.00

# input Give the reported value of pIC50 for this record: "COC(=O)c1cnc(S)n1C(c1ccc(Cl)c(Cl)c1)c1ccc(Cl)c(Cl)c1"
# output < 5.00

# input Give the reported value of pIC50 for this record: CCC(c1cc(F)cc(F)c1)n1c(C(=O)OC)cnc1S (stereo unspecified)
# output < 5.00

# input Give the reported value of pIC50 for this record: CCC(c1cccc(Cl)c1)n1c(C(=O)OC)cnc1S (stereo unspecified)
# output < 5.00

# input Give the reported value of pIC50 for this record: CCC(c1ccc(F)c(F)c1)n1c(C(=O)NC)cnc1S (stereo unspecified)
# output 5.70

# input Give the reported value of pIC50 for this record: CCC(c1ccc(F)c(F)c1)n1c(C(=O)OC)cnc1S (stereo unspecified)
# output 5.90

# input Give the reported value of pIC50 for this record: CCCCNC(=O)c1cnc(S)n1C(CC)c1ccc(F)c(F)c1 (stereo unspecified)
# output < 5.00

# input Give the reported value of pIC50 for this record: CCC(c1ccc(Cl)c(Cl)c1)n1c(C(=O)OC(C)C)cnc1S (stereo unspecified)
# output 6.50
